- PROTOCOL DESCRIPTION: Percutaneous absorption testing (percent of applied dose that penetrated past the stratum corneum)
- MEASUREMENT PARAMETERS: 48 h
REPORTED PROPERTY: Percutaneous Absorption Testing, 48 Hours (%)

MOLECULE	VAL
CN(C)CCC=C1c2ccccc2C=Cc2ccccc21	10
NCC(CC(=O)O)c1ccc(Cl)cc1 (centres unmarked)	6
O=C(O)Cc1ccccc1Nc1c(Cl)cccc1Cl	10
CC(=O)CCCCn1c(=O)c2c(ncn2C)n(C)c1=O	71
CCCCN1CCCCC1C(=O)Nc1c(C)cccc1C (centres unmarked)	4

----------
Measured Percutaneous Absorption Testing, 8 Hours, listed per entry.
- PROTOCOL DESCRIPTION: Percutaneous absorption testing (percent of applied dose that penetrated past the stratum corneum)
- MEASUREMENT PARAMETERS: 8 h

MOLECULE	Percutaneous Absorption Testing, 8 Hours (%)
CN(C)CCC=C1c2ccccc2C=Cc2ccccc21	3
NCC(CC(=O)O)c1ccc(Cl)cc1 (centres unmarked)	2
O=C(O)Cc1ccccc1Nc1c(Cl)cccc1Cl	4
CCCCN1CCCCC1C(=O)Nc1c(C)cccc1C (centres unmarked)	1
CC(=O)CCCCn1c(=O)c2c(ncn2C)n(C)c1=O	26
